system: morningglory; experiment: Test B pre/postemergence morningglory; format: in vivo, Ipomoea hederacea; conditions: Rate 125 g/ha, Postemergence; scale 0 to 10
reported endpoint: Morningglory plant response rating

## Task Can you look up the measured Morningglory plant response rating of `COc1nc(OC)nc(N(C(=O)n2oc(=O)n(C(C)C)c2=O)C(C)C)n1` for me?
## Result 0

## Task And for `CCCCn1c(=O)on(C(=O)N(c2ccc(F)cc2)C(C)C)c1=O` ?
## Result 0

## Task Subsequent entry: `C=CCn1c(=O)on(C(=O)N(c2ccc(F)cc2)C2CCC2)c1=O`
## Result 0

## Task Can you handle `Cc1ccccc1-n1c(=O)on(C(=O)N(c2ccc(N(C)C)cc2)C(C)C)c1=O` next?
## Result 2

## Task Item: `CCC(CC)N(C(=O)n1oc(=O)n(-c2ccccc2C)c1=O)c1ccc(F)cc1`
## Result 0
